Reference for the values: PubChem BioAssay (NCATS)

# Method summary: qHTS screen for small molecules that inhibit ELG1-dependent DNA repair: Hit Confirmation in Cell-Based Luciferin Assay (AID 624247)
# Condition details: cell-free firefly luciferase luminescence counter-screen, ViewLux; series mostly up to 46.1 µM
The other results are listed elsewhere or left out. Results filed as inconclusive are left out. The source made the active and inactive calls. Calls come from the whole dose curve; as a rule, active = well fitted inhibition curve with a large enough effect; inconclusive = small, poorly fitted or top-dose-only effect; inactive = no such curve, though single readings can be large or run the other way.
Readout type: outcome

Would you please look over these solved cases?
Compound: O=C(C1CCCN(S(=O)(=O)c2ccccc2)C1)N1CCN(c2ccc(F)cc2)CC1 (configuration not stated)
outcome: inactive

Compound: O=C(Nn1c(SCc2ccc([N+](=O)[O-])cc2)nc2ccccc2c1=O)c1ccc(F)cc1
outcome: inactive

Compound: Cc1ccc(Nc2nc(N3CCOCC3)nc(N3CCOCC3)n2)cc1Cl
outcome: inactive

Compound: CS(=O)c1ccc(/C=C2\C=Cc3ccccc32)cc1 (configuration not stated)
outcome: inactive

Compound: COc1ccc(NC(C)=O)cc1NC(=O)CN1CCN(C2c3ccccc3-c3ccccc32)CC1
outcome: inactive

Compound: COc1ccc(NC(=O)c2sc3nc(C)nc(N4CCN(c5ccccn5)CC4)c3c2C)c(OC)c1
outcome: inactive

We next turn to a different compound, shown below.
Looking for the measured outcome of CCOC(=O)c1cccc(NC(=O)C2CCN(c3ncnc4c3nc3n4CCCCC3)CC2)c1 , can you help?
inactive

###

# Method summary: qHTS for Inhibitors of the vitamin D receptor (VDR): Hit Validation using a Texas Red Assay (AID 602201)
# Condition details: VDR coregulator binding, Texas Red fluorescence polarization, agonist-bound VDR ligand-binding domain; series mostly up to 57.1 µM
Inconclusive results are not listed. Activity calls are given as the source filed them. The call rests on the fitted dose curve; in most records, active means well fitted curve in the direction sought with a large enough effect; inconclusive means small, poorly fitted or top-dose-only effect, or another doubt; inactive means no such curve, though single readings can be large or run the other way.
Assign a class; possible classes are class 1 for active, class 0 for inactive

Answered cases to consult:
Mol smiles: O=C(Oc1ccccc1/C=C\C(=O)c1cc2ccccc2o1)c1ccccc1
Discrete label: class 1

Mol smiles: CC(C)CN1C(=O)/C(=C(/C#N)C(=O)NC2CCCCC2)c2ccccc21
Discrete label: class 1

// return assay outcome for O=S(=O)(/C(=C/c1ccc(C(F)(F)F)cc1)c1nc2ccccc2[nH]1)c1ccccc1
class 0

// return assay outcome for O=C(/C=C/c1ccccc1F)c1cccc([N+](=O)[O-])c1
class 1

// return assay outcome for O=C(COc1ccc(Cl)cc1)Nc1sc2c(c1C(=O)Nc1cccc(Cl)c1)CCCC2
class 1

// return assay outcome for [O-]/[N+](=C/c1ccc(F)cc1)c1ccc(Cl)cc1
class 0

// return assay outcome for Cc1cccc2c1N(Cc1ccccc1OCCC(C)C)C(=O)C2=O
class 1

// return assay outcome for O=C1/C(=C/c2cccc([N+](=O)[O-])c2)CCc2ccccc21
class 1

// return assay outcome for Cc1nc2c3cc(F)ccc3n(Cc3ccccc3)c2s1
class 0

// return assay outcome for C=CCOc1c(Br)cc(/C=C2/C(=O)ON=C2C)cc1OC
class 0

###

# Target system: Cytochrome P450 2C19 (Homo sapiens)
# Method summary: qHTS Assay for Inhibitors and Substrates of Cytochrome P450 2C19 (AID 899); note: nearly all actives have a fitted effect of over 60% in size
# Condition details: recombinant CYP2C19, luciferin-H EGE luminescence; series mostly up to 11.4 µM
Inconclusive results are not listed. Calls of active or inactive are those of the source. Calls follow the shape of the dose curve; as a rule, active = well fitted inhibition curve with a large enough effect; inconclusive = small, poorly fitted or top-dose-only effect; inactive = no such curve, though single readings can be large or run the other way.
Assign a class; possible classes are 1 (yes) (active), 0 (no) (inactive)

Answered cases to consult:
Compound: CC(=O)OC[C@@H]1O[C@@H](O/N=C2/C[C@@H](O)[C@@H](O)[C@@H]3[C@@H]4C(=O)N(C(C)(C)C)C(=O)[C@H]4CC[C@H]23)[C@H](OC(C)=O)[C@H](OC(C)=O)[C@@H]1OC(C)=O
Discrete label: 0 (no)
--
Compound: CCOC(=O)[C@]1(C(/C=C/c2ccco2)NC(=O)OC)CCCC1=O (some centres undefined)
Discrete label: 0 (no)
--
Compound: COC(=O)[C@@]1(Cc2ccc(F)cc2)[C@H]2c3cc(C(=O)N4CCCC4)n(CCc4c[nH]c5ccc(OC)cc45)c3C[C@H]2CN1C(=O)c1ccccc1
Discrete label: 1 (yes)

Please find the next compound below.
// return assay outcome for Cc1c(OCc2ccccc2)cccc1OCc1ccccc1
0 (no)
